# Vd listing for each entry below
- METHOD: Volume of distribution at steady state in Sprague-Dawley rat at 6 mg/kg, iv by LC-MS analysis
- Assay type: ADME, organism-based
- CONDITION SET: in vivo, read-out: Vdss

| STRUCTURE AS SMILES | Vd, L/kg |
| --- | --- |
| O=C(CN(Cc1cccc(C(=O)O)c1)Cc1cccc(C(=O)O)c1)NO | 0.42 |
| O=C(CN(Cc1ccc(F)c(O)c1F)Cc1ccc(F)c(O)c1F)NO | 0.41 |
| O=C(CN(Cc1ccc(Cl)c(O)c1F)Cc1ccc(Cl)c(O)c1F)NO | 0.33 |

----------
- METHOD: Tmax in Sprague-Dawley rat at 10 mg/kg, ip by LC-MS analysis
- Assay type: ADME, organism-based
- CONDITION SET: in vivo
READOUT NAME: Tmax (min)

| STRUCTURE AS SMILES | RECORDED MEASUREMENT |
| --- | --- |
| O=C(CN(Cc1cccc(C(=O)O)c1)Cc1cccc(C(=O)O)c1)NO | 7.2 |
| O=C(CN(Cc1ccc(Cl)c(O)c1F)Cc1ccc(Cl)c(O)c1F)NO | 10.2 |

----------
# Fa listing for each entry below
- METHOD: Drug absorption in Sprague-Dawley rat at 10 mg/kg, po by LC-MS analysis
- Type: ADME, organism-based
- CONDITION SET: in vivo, read-out: Fabs

| STRUCTURE AS SMILES | READING UNIT | Fa |
| --- | --- | --- |
| O=C(CN(Cc1ccc(Cl)c(O)c1F)Cc1ccc(Cl)c(O)c1F)NO | % | 9 |
| O=C(CN(Cc1ccc(F)c(O)c1F)Cc1ccc(F)c(O)c1F)NO | % | 5 |

----------
- SYSTEM NAME: MMP9 (Homo sapiens)
- Sequence (P14780 whole entry): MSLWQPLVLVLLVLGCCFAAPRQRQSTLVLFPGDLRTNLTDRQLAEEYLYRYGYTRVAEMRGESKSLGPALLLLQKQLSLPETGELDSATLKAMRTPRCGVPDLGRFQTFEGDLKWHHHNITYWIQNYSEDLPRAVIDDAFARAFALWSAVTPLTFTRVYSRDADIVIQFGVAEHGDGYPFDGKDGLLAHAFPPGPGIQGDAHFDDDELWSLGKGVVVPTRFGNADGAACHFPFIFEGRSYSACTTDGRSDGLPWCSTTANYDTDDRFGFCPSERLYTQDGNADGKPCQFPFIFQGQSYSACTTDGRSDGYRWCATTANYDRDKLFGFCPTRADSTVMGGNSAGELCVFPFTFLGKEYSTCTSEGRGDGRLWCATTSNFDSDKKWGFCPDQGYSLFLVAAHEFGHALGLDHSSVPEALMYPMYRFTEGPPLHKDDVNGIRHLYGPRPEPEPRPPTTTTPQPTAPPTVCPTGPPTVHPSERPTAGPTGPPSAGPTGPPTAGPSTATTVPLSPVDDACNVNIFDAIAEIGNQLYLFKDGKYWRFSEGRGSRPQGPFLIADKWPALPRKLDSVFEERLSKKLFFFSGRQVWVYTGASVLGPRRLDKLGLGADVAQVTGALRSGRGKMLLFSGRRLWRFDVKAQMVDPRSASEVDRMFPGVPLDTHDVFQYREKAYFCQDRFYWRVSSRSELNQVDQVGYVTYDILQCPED
- METHOD: Inhibition of human MMP9 assessed as residual activity using Mca-PLGL-(DapDnp)-AR-NH2 as substrate at 200 uM by fluorescence assay relative to control
- CONDITION SET: human MMP9 enzyme, probe Mca-PLGL-(DapDnp)-AR-NH2, read-out: Activity
Sorting guide: entries reporting activity at 200 µM beneath 70% go in the 1 pile, the rest go in the -1 pile.

| STRUCTURE AS SMILES | SYSTEM NAME | CLASS |
| --- | --- | --- |
| O=C(CN(Cc1ccc(Cl)cc1)Cc1cccc(C(=O)O)c1)NO | MMP9 (Homo sapiens) | -1 |
| COc1ccc(S(=O)(=O)N(CC(=O)NO)Cc2cccc(C(=O)O)c2)cc1 | MMP9 (Homo sapiens) | 1 |
| O=C(CN(Cc1ccc(Cl)c(O)c1F)Cc1ccc(Cl)c(O)c1F)NO | MMP9 (Homo sapiens) | -1 |
| O=C(CN(Cc1cccc(C(=O)O)c1)Cc1cccc(C(=O)O)c1)NO | MMP9 (Homo sapiens) | -1 |
| O=C(CN(Cc1ccc(F)c(O)c1F)Cc1ccc(F)c(O)c1F)NO | MMP9 (Homo sapiens) | -1 |
| COc1ccc(CN(CC(=O)NO)Cc2cccc(C(=O)O)c2)cc1 | MMP9 (Homo sapiens) | -1 |

----------
- SYSTEM NAME: ADAM17 (Homo sapiens)
- Sequence (P78536 whole entry): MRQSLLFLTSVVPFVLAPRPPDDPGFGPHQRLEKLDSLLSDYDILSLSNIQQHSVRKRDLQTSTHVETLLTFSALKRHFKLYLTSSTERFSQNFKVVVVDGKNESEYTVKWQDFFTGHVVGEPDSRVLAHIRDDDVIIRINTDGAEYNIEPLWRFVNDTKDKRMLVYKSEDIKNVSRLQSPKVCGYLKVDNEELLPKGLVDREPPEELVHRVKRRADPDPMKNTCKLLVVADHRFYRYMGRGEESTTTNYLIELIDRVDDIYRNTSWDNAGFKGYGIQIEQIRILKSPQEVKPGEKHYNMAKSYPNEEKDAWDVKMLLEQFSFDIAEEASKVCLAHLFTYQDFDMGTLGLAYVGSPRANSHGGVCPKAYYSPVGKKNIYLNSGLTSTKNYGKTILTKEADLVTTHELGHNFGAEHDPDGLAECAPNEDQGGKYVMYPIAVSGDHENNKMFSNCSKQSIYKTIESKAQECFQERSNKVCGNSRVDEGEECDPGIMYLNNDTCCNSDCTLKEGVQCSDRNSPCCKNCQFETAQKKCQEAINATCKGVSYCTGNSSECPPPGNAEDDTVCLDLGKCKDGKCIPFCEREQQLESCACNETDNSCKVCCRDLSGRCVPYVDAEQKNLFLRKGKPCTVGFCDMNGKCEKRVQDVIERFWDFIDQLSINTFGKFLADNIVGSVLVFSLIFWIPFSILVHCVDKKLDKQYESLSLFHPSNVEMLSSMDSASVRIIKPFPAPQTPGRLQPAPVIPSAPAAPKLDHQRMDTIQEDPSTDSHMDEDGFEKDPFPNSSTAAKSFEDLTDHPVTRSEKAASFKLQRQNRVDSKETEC
- METHOD: Inhibition of human ADAM17 assessed as residual activity using Abz-LANAVRSSSR-(DapDnp)-AR-NH2 as substrate at 200 uM by fluorescence assay relative to control
- CONDITION SET: human ADAM17 enzyme, probe Abz-LANAVRSSSR-(DapDnp)-AR-NH2, read-out: Activity

| STRUCTURE AS SMILES | SYSTEM NAME | activity at 200 µM |
| --- | --- | --- |
| O=C(CN(Cc1cccc(C(=O)O)c1)Cc1cccc(C(=O)O)c1)NO | ADAM17 (Homo sapiens) | 76% |
| O=C(CN(Cc1ccc(F)c(O)c1F)Cc1ccc(F)c(O)c1F)NO | ADAM17 (Homo sapiens) | 92% |
| COc1ccc(CN(CC(=O)NO)Cc2cccc(C(=O)O)c2)cc1 | ADAM17 (Homo sapiens) | 60% |
| O=C(CN(Cc1ccc(Cl)c(O)c1F)Cc1ccc(Cl)c(O)c1F)NO | ADAM17 (Homo sapiens) | 82% |
| COc1ccc(S(=O)(=O)N(CC(=O)NO)Cc2cccc(C(=O)O)c2)cc1 | ADAM17 (Homo sapiens) | < 1% |
| O=C(CN(Cc1ccc(Cl)cc1)Cc1cccc(C(=O)O)c1)NO | ADAM17 (Homo sapiens) | 57% |
